system: NOMO1; assay: cell viability relative to DMSO control; higher = less cytotoxic; details: HPLM + 10% dialyzed FBS; 48 h; 0.0211 µM
# cell viability per entry
reported-metric: cell viability (%)

- molecule: "COc1cc([C@@H](CC(=O)O)c2ccc(C)c(CN3C[C@@H](C)Oc4ccccc4[S+]3(=O)[O-])c2)cc2nnn(C)c12"
  reported-result: 121
- molecule: "CC(C)(F)C[C@H](N[C@@H](c1ccc(-c2ccc([S+](C)(=O)[O-])cc2)cc1)C(F)(F)F)C(=O)NC1(C#N)CC1"
  reported-result: 113
- molecule: "Cc1nn(C)c(COc2ccc(N3CCN([S+](=O)([O-])N(C)C)CC3)cc2)c1-c1cccc2c(CCCOc3cccc4ccccc34)c(C(=O)O)n(CCN3CCOCC3)c12"
  reported-result: 122
- molecule: "COc1cc(Nc2c(C#N)cnc3cc(OCCCN4CCN(C)CC4)c(OC)cc23)c(Cl)cc1Cl"
  reported-result: 111
- molecule: "N[S+](=O)([O-])c1cc2c(cc1Cl)NC(C(Cl)Cl)N[S+]2(=O)[O-] (stereo unspecified)"
  reported-result: 117
- molecule: "COc1ccc(C(=O)c2c(C)n(CCN3CCOCC3)c3ccccc23)cc1"
  reported-result: 108
- molecule: "O=C(CC12CC3CC(CC(C3)C1)C2)Nc1cccc2nc(NCCNCCO)ccc12"
  reported-result: 106
- molecule: "CC(=O)OC[C@H]1O[C@@H]([S-])[C@H](OC(C)=O)[C@@H](OC(C)=O)[C@@H]1OC(C)=O.CCP(CC)CC.[Au+]"
  reported-result: 92
- molecule: "CCN1C[C@H](C)[N]2C(=C(O)C3=C2\\C(=N/N(CC4=CC=C(F)C(=C4)Cl)C3=O)C(=O)NC)C1=O"
  reported-result: 126
- molecule: "Cc1ccc([N+](=O)[O-])cc1[S+](=O)([O-])N(C)/N=C/c1cnc2ccc(Br)cn12"
  reported-result: 89.8
- molecule: "O=C(CS(=O)Cc1ccco1)NC/C=C\\COc1cc(CN2CCCCC2)ccn1 (stereo unspecified)"
  reported-result: 102
- molecule: "COc1ccc(C(CN(C)C)C2(O)CCCCC2)cc1 (stereo unspecified)"
  reported-result: 125
- molecule: "CCc1cc2c(cc1N1CCC(N3CCOCC3)CC1)C(C)(C)c1[nH]c3cc(C#N)ccc3c1C2=O"
  reported-result: 117
- molecule: "N[C@H]2CN(CC12CC1)c3c(F)cc4c(c3Cl)[N@@](C=C(C4=O)C(=O)O)C5C[C@H]5F (stereo partly specified)"
  reported-result: 102
- molecule: "Cc1cc(OCCC[S+](C)(=O)[O-])cc(C)c1-c1cccc(COc2ccc3c(c2)OC[C@H]3CC(=O)O)c1"
  reported-result: 91.3
- molecule: "C[C@@H]1CN(Cc2ccc(F)cc2)[C@@H](C)CN1C(=O)c1cc2c(C(=O)C(=O)N(C)C)cn(C)c2cc1Cl"
  reported-result: 119

---

system: P12-Ichikawa; experiment: cell viability relative to DMSO control; higher = less cytotoxic; conditions: HPLM + 10% dialyzed FBS; 48 h; 46.1 µM

- smiles: "CCN(CC)CCOc1ccc(Cc2ccccc2)cc1"
  experimental-target: "P12-Ichikawa"
  cell viability, %: 22.8
- smiles: "CCC[S+](=O)([O-])Nc1ccc(F)c(C(=O)c2c[nH]c3ncc(Cl)cc23)c1F"
  experimental-target: "P12-Ichikawa"
  cell viability, %: 44.2
- smiles: "O=C(CCCCCCC(=O)Nc1cccnc1)NO"
  experimental-target: "P12-Ichikawa"
  cell viability, %: 4.36
- smiles: "O=[N+]([O-])c1ncc[nH]1"
  experimental-target: "P12-Ichikawa"
  cell viability, %: 80.5
- smiles: "C[C@@H]1O[C@@H](O[C@H]2C[C@@H](O)[C@]3(CO)[C@H]4[C@H](O)C[C@]5(C)[C@@H](C6=CC(=O)OC6)CC[C@]5(O)[C@@H]4CC[C@]3(O)C2)[C@H](O)[C@H](O)[C@H]1O"
  experimental-target: "P12-Ichikawa"
  cell viability, %: 9.88

---

system: NOMO1; experiment: cell viability relative to DMSO control; higher = less cytotoxic; conditions: RPMI 5 mM glucose + 10% dialyzed FBS; 48 h; 0.00702 µM
# cell viability annotations

- molecule: "O=[N+]([O-])c1ncc[nH]1"
  cell viability (%): 88.7
- molecule: "O=C(Nc1c[nH]nc1-c1nc2cc(CN3CCOCC3)ccc2[nH]1)NC1CC1"
  cell viability (%): 92.6
- molecule: "CCOC(=O)N1c2ccc(C(F)(F)F)cc2[C@@H](N(Cc2cc(C(F)(F)F)cc(C(F)(F)F)c2)C(=O)OC)C[C@H]1CC"
  cell viability (%): 121
- molecule: "OC[C@H]1O[C@H](C[C@@H]1O)N2\\C=C(F)/C(=O)NC2=O"
  cell viability (%): 106
- molecule: "N[S+](=O)([O-])c1cc2c(cc1Cl)NC(C(Cl)Cl)N[S+]2(=O)[O-] (stereo not given)"
  cell viability (%): 109

---

Item-by-item account of cell viability
system: SEM cells; assay: cell viability relative to DMSO control; higher = less cytotoxic; conditions: RPMI 5 mM glucose + 10% FBS; 48 h; 5.12 µM
reported-metric: cell viability (%)

- smiles: "COc1cc([C@@H](CC(=O)O)c2ccc(C)c(CN3C[C@@H](C)Oc4ccccc4[S+]3(=O)[O-])c2)cc2nnn(C)c12"
  reported-result: 67.5
- smiles: "CC(C)(O)[C@H]1CC[C@@](C)([C@H]2[C@@H](O)C[C@@]3(C)[C@@H]4C[C@H](O[C@@H]5O[C@H](CO)[C@@H](O)[C@H](O)[C@H]5O)[C@H]5C(C)(C)[C@@H](O[C@@H]6OC[C@@H](O)[C@H](O)[C@H]6O)CC[C@@]56C[C@@]46CC[C@]23C)O1"
  reported-result: 108
- smiles: "O=C(NCCCCN1CCOCC1)c1cc2ccccc2o1"
  reported-result: 99.9
- smiles: "C[C@H]1C[C@H]2[C@@H]3CC[C@](O)(C(=O)CO)[C@@]3(C)C[C@H](O)[C@@H]2[C@@]\\4(C)/C=C\\C(=O)\\C=C14"
  reported-result: 51.5
- smiles: "C[C@@H](NCCCc1cccc(C(F)(F)F)c1)c1cccc2ccccc12"
  reported-result: 96.5
- smiles: "COc1cc([C@@H]2c3cc4c(cc3[C@H](O)[C@H]3COC(=O)[C@@H]23)OCO4)cc(OC)c1OC"
  reported-result: 12.2
- smiles: "c1ccc2c(Cc3c[nH]c4ccccc34)c[nH]c2c1"
  reported-result: 76.4

---

test system: SEM cells; assay: cell viability relative to DMSO control; higher = less cytotoxic; conditions: HPLM + 10% dialyzed FBS; 48 h; 0.00234 µM
reported-metric: cell viability (%)

- compound: "C/C(=N\\NC(=S)N1CCC1)c1ccccn1"
  experimental-target: "SEM cells"
  units-label: "%"
  reported-result: 65.1
- compound: "CN1CCN(c2c(F)cc3c(=O)c(C(=O)O)cn(CCF)c3c2F)CC1"
  experimental-target: "SEM cells"
  units-label: "%"
  reported-result: 85.3
- compound: "CC[C@@H]1[C@@H](C)O[C@@](O)([C@@H](C)[C@H](O)[C@H](C)[C@H]2OC(=O)/C=C/C=C/[C@H](C)[C@@H]([C@@H](C)[C@@H](O)[C@H](C)[C@@]3(O)C[C@@H](O[C@H]4C[C@H](O)[C@H](O)[C@H](C)O4)[C@H](CC)[C@@H](C)O3)OC(=O)/C=C/C=C/[C@@H]2C)C[C@H]1O[C@H]1C[C@H](O)[C@H](O)[C@H](C)O1"
  experimental-target: "SEM cells"
  units-label: "%"
  reported-result: 114
- compound: "N[S+](=O)([O-])c1cc2c(cc1Cl)NC(C(Cl)Cl)N[S+]2(=O)[O-] (stereo not drawn)"
  experimental-target: "SEM cells"
  units-label: "%"
  reported-result: 95.6
- compound: "CCOc1cc2ncc(C#N)c(Nc3ccc(OCc4ccccn4)c(Cl)c3)c2cc1NC(=O)/C=C/CN(C)C"
  experimental-target: "SEM cells"
  units-label: "%"
  reported-result: 122
- compound: "CC(=O)c1cnc2ccc(-c3cc(Cl)c(O)c(Cl)c3)nc2c1N[C@H]1CC[C@H](CN(C)C)CC1"
  experimental-target: "SEM cells"
  units-label: "%"
  reported-result: 101
- compound: "C[N]1C=C(C2=CC=CC=C12)\\C3=C(\\C(=O)NC3=O)C4=C[N](C5CCN(CC5)CC6=NC=CC=C6)C7=C4C=CC=C7"
  experimental-target: "SEM cells"
  units-label: "%"
  reported-result: 113
- compound: "CCCC(C)(COC(N)=O)COC(=O)NC(C)C (stereo not drawn)"
  experimental-target: "SEM cells"
  units-label: "%"
  reported-result: 95.9
